The origin of these recorded values is ChEMBL document CHEMBL3616406.

molecular target: Bifunctional epoxide hydrolase 2 (Homo sapiens, UniProt P34913); test: Mixed-type inhibition of sEH (unknown origin) using PHOME as substrate assessed as formation of 6-methoxy-2-naphthaldehyde measured during 30 mins by Dixon plot analysis
Sequence (P34913 whole entry): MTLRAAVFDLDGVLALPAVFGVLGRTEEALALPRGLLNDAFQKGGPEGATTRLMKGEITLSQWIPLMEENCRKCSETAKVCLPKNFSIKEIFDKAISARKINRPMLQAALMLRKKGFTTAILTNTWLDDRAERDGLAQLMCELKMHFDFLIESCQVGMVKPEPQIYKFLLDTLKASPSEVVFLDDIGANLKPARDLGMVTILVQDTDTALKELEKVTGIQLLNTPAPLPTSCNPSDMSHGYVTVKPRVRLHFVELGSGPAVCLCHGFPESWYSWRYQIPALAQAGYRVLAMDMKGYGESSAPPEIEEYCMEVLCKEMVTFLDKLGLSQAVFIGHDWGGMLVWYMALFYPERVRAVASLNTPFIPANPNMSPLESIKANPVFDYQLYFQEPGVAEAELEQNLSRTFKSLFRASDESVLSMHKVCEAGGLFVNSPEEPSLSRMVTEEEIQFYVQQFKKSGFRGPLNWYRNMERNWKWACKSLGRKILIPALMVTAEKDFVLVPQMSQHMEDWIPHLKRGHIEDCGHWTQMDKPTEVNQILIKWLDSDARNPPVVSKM
hey, just use TRUE if measured Ki is less than 2 µM, otherwise FALSE

- Molecule: "O=C1c2c(O)cccc2C([C@@H]2O[C@H](CO)[C@@H](O)[C@H](O)[C@H]2O)c2cc(CO)cc(O)c21 (stereo not given in full)"
  Cat: "FALSE"
- Molecule: "C[C@@H]1O[C@@H](OCc2cc(O)c3c(c2)[C@](O)([C@@H]2O[C@H](CO)[C@@H](O)[C@H](O)[C@H]2O)c2cccc(O)c2C3=O)[C@H](O)[C@H](O)[C@H]1O"
  Cat: "FALSE"
- Molecule: "O=C1c2c(O)cccc2[C@@H]([C@@H]2O[C@H](CO)[C@@H](O)[C@H](O)[C@H]2O)c2cc(CO)cc(O)c21"
  Cat: "FALSE"
- Molecule: "Cc1cc(O)c2c(c1)[C@H]([C@@H]1O[C@H](CO)[C@@H](O)[C@H](O)[C@H]1O)c1cccc(O)c1C2=O"
  Cat: "TRUE"
